test system: AS24391; experiment: In vitro anticancer MTT experiment; type: cell-based; conditions: concentration 5 ug/ml, 48 h or 72 h, read-out: inhibition ratio AS24391
REPORTED_ENDPOINT: inhibition at 5 µg/mL (%)
Quick reminder: number only, in %, skip the unit.

In: I'd like to know its inhibition at 5 µg/mL. The compound in question is "O=C1/C(=C/Cl)CSc2ncccc21"
Out: 63.5

In: Proceed to "Cc1ccc(S/C=C2/CSc3ccc(F)cc3C2=O)cc1F"
Out: 44.5

In: Proceed to "O=C1/C(=C\Cl)CSc2ccc(F)cc21"
Out: 43.5

In: Proceed to "Cc1ccc2c(c1)C(=O)CSC2"
Out: 45.1

In: Proceed to Cc1ccc(SC2/C(=C/Cl)CSc3ccc(C)cc32)cc1 (centres unmarked)
Out: 15.2

----------
tested on: SGC7901; assay: In vitro anticancer MTT experiment; format: cell-based; conditions: Homo sapiens, SGC-7901, concentration 5 ug/ml, 48 h or 72 h, read-out: inhibition ratio SGC7901
Would you mind telling me the reported inhibition at 5 µg/mL of each entry?
Quick reminder: number only, in %, skip the unit.

In: Give recorded inhibition at 5 µg/mL with SGC7901 for the following compound: "O=C1/C(=C\Cl)CSc2ccc(F)cc21"
Out: 60.7

In: Proceed to "Cc1cc2c(cc1F)SC/C(=C\Br)C2=O"
Out: 50.4

In: Proceed to "O=C1/C(=C/Cl)SCc2ccccc21"
Out: 50.6

In: Proceed to "O=C1/C(=C/Br)CSc2ccc(F)cc21"
Out: 59

In: Proceed to "Cc1ccc2c(c1)C(=O)CSC2"
Out: 50.6

In: Proceed to "O=C1/C(=C\Cl)CSc2ccc(Cl)cc21"
Out: 50

In: Proceed to "O=C1/C(=C/Cl)CSc2ccc(Cl)cc21"
Out: 60.8

In: Proceed to "Cc1ccc2c(c1)C(=O)/C(=C/Br)CS2"
Out: 60.6

----------
test system: L1210; assay: In vitro anticancer MTT experiment; format: cell-based; details: Mus musculus, concentration 5 ug/ml, 48 h or 72 h, read-out: inhibition ratio L1210
REPORTED_ENDPOINT: inhibition at 5 µg/mL (%)
Quick reminder: number only, in %, skip the unit.

In: I'd like to know its inhibition at 5 µg/mL. The molecule in question is "O=C1/C(=C/Cl)CSc2ccc(F)cc21"
Out: 79.8

In: Proceed to "Cc1ccc(S/C=C2\CSc3ccc(F)cc3C2=O)cc1F"
Out: 90.9

In: Proceed to "Cc1ccc(S/C=C2/CSc3ccc(F)cc3C2=O)cc1F"
Out: 37.6

In: Proceed to "O=C1/C(=C\Cl)CSc2ccc(F)cc21"
Out: 86.7

In: Proceed to "O=C1/C(=C/Br)CSc2ccc(F)cc21"
Out: 86

In: Proceed to "Cc1ccc2c(c1)C(=O)/C(=C/Br)CS2"
Out: 84.6

----------
Would you mind telling me the reported inhibition at 5 µg/mL of each entry?
test system: HTB-131MDA-MB-453; assay: In vitro anticancer MTT experiment; assay type: cell-based; settings: concentration 5 ug/ml, 48 h or 72 h, read-out: inhibition ratio HTB-131MDA-MB-453
Quick reminder: number only, in %, skip the unit.

In: I'd like to know its inhibition at 5 µg/mL. The compound in question is Cc1ccc2c(c1)C(=O)CSC2 [Compound 13]
Out: 65.5

In: Proceed to O=C1/C(=C\Cl)CSc2sccc21 [Compound 24]
Out: 47.6

In: Proceed to Cc1cc2c(cc1F)CS/C(=C\Br)C2=O [Compound 16]
Out: 46.3

In: Proceed to Cc1ccc2c(c1)C(Cl)/C(=C/Cl)CS2 (stereo not drawn) [Compound 28]
Out: 56.8

In: Proceed to O=C1/C(=C/Cl)SCc2ccccc21 [Compound 14]
Out: 56.7

In: Proceed to Cc1cc2c(cc1F)SC/C(=C\Cl)C2=O [Compound 6]
Out: 60.7
